These data points were gathered from paper PMC6720883.

- experimental_system: UGT1A4 (Homo sapiens, UniProt P22310)
- Sequence (P22310 29-534): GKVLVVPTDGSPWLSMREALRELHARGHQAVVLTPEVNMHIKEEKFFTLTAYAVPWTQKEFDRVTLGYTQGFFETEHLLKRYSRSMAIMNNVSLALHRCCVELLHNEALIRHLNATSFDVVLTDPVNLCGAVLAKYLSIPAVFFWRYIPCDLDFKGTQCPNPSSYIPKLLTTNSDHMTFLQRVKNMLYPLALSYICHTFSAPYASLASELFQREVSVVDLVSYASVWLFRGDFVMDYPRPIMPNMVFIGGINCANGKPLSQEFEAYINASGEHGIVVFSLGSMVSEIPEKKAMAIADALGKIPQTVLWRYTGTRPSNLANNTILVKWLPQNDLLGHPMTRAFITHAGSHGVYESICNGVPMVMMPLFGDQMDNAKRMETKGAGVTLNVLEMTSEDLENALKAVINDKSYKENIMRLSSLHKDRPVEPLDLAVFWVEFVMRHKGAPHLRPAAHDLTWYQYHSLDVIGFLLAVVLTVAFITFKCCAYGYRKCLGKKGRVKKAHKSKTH
- method_notes: Inhibition of UGT1A4-catalyzed trifluoperazine N-glucuronidation in human liver microsomes
- applied_conditions: read-out: IC50 UGT1A4 trifluoperazine N-glucuronidation, with 30-min preincubation; pooled human liver microsomes; 30-min preincubation with UDPGA (○)
measured_attribute: IC50

What measured IC50 goes with "CCCCCn1nc(C(=O)NC23CC4CC(CC(C4)C2)C3)c2ccccc21" ?
> 100 µM

====

- experimental_system: CYP2C9 (Homo sapiens, UniProt P11712)
- Sequence (P11712 whole entry): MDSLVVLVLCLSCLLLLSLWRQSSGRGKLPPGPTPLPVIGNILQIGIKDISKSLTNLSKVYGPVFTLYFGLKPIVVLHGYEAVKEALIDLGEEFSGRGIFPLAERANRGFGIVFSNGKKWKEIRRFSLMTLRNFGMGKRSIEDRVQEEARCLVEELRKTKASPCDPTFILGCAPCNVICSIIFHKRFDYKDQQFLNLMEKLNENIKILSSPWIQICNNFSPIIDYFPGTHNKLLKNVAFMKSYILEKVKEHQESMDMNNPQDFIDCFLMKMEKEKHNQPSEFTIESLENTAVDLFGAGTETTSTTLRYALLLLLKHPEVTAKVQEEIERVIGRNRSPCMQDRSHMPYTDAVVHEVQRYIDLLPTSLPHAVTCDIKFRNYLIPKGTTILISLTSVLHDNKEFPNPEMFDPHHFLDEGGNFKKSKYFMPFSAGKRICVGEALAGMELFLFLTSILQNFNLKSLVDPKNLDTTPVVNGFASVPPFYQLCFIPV
- method_notes: Inhibition of CYP2C9-catalyzed diclofenac 4′-hydroxylase in ultrapooled human liver microsomes
- Format: in vitro ADME
- applied_conditions: human, microsomes, pH 7.4, IC50 (μM) With Preincubation, CYP2C9 diclofenac 4′-hydroxylase, 30-min preincubation with NADPH
measured_attribute: IC50 at 15 min

Form: Entry = CCCCCn1nc(C(=O)NC23CC4CC(CC(C4)C2)C3)c2ccccc21 [APINACA] | System = CYP2C9 (Homo sapiens, UniProt P11712) | IC50 at 15 min = ____
> 100 µM

====

- experimental_system: CYP3A4 (Homo sapiens, UniProt P08684)
- Sequence (P08684 2-503): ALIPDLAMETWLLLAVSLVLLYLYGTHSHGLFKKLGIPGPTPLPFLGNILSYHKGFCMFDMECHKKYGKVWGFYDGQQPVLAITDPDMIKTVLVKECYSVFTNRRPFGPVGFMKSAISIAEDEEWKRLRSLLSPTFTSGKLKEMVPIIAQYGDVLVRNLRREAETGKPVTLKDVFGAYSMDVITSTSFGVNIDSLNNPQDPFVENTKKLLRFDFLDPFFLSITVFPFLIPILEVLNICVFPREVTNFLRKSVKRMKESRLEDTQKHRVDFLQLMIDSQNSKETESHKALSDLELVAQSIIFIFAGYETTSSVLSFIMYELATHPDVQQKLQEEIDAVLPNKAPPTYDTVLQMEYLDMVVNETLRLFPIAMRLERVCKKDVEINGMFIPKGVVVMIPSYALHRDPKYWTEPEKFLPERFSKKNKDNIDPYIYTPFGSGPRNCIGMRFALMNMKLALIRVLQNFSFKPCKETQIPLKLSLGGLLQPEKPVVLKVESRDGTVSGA
- method_notes: Inhibition of CYP3A4-mediated midazolam 1′-hydroxylase in ultrapooled human liver microsomes
- Format: in vitro ADME
- applied_conditions: IC50 (μM) With Preincubation, CYP3A4 midazolam 1′-hydroxylase, 30-min preincubation with NADPH
measured_attribute: IC50 (µM)
Express your answer in µM, writing the number without its unit.

What measured IC50 goes with "CCCCCn1nc(C(=O)NC23CC4CC(CC(C4)C2)C3)c2ccccc21" ?
4.2

====

- experimental_system: UniProt P08684
- method_notes: Inhibition of CYP3A4-mediated midazolam 1′-hydroxylase in ultrapooled human liver microsomes
- Type: in vitro ADME
- applied_conditions: IC50 (μM) No Preincubation, CYP3A4 midazolam 1′-hydroxylase, 2.5 μM midazolam, no preincubation
measured_attribute: IC50 (µM)
Express your answer in µM, writing the number without its unit.

What measured IC50 goes with CCCCCn1nc(C(=O)NC23CC4CC(CC(C4)C2)C3)c2ccccc21 [APINACA] ?
16.9

====

- experimental_system: CYP2C8 (Homo sapiens)
- Sequence (P10632 1-490): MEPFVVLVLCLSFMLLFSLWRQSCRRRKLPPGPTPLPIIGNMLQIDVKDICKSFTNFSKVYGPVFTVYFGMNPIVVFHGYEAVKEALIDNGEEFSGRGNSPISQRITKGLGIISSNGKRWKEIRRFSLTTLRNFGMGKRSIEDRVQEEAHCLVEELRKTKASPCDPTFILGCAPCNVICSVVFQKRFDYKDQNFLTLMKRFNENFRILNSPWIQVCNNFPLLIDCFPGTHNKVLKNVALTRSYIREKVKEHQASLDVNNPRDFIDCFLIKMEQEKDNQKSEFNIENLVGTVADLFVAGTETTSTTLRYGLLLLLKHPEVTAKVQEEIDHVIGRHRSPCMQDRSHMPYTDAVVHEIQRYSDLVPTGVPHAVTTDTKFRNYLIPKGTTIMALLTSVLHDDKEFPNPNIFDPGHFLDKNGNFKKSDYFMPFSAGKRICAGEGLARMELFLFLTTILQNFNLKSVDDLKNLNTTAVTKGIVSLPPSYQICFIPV
- method_notes: Inhibition of CYP2C8-catalyzed amodiaquine N-deethylase in ultrapooled human liver microsomes
- Format: in vitro ADME
- applied_conditions: read-out: IC50 (μM) With Preincubation, CYP2C8 amodiaquine N-deethylase; ultrapooled human liver microsomes; 30-min preincubation with NADPH
measured_attribute: IC50

What measured IC50 goes with CCCCCn1nc(C(=O)NC23CC4CC(CC(C4)C2)C3)c2ccccc21 [APINACA] ?
> 100 µM
